Experiment: MM1S cell viability effects, profiling panel, calcein-AM fluorescence, 48 h, basal (AID 1165);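 note: viability of MM1S multiple myeloma cells under basal unstimulated conditions; test concentration not given here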
Conditions: higher = more signal
observable: z-score

{"compound": "O=C1c2ccccc2[C@](Cc2ccccc2I)(C(=O)NCCN2CCOCC2)[C@H](c2ccc(CO)cc2)N1Cc1ccccc1Cl", "measured_result": -1.66}
{"compound": "CCC(CC)C(O)C1C=CC2C(=O)NC(=O)C2N1Nc1ccc(Cl)cc1Cl (centres undefined)", "measured_result": -1.38}
{"compound": "CC(C)[Si](C#Cc1ccc(Oc2ccccc2)cc1)(O[Si](C#Cc1ccc(Oc2ccccc2)cc1)(C(C)C)C(C)C)C(C)C", "measured_result": -1.58}
{"compound": "COC(=O)[C@@]1(Cc2ccccc2)[C@H]2c3cc(C(=O)N(C)C)n(Cc4ccsc4Br)c3C[C@H]2CN1C(=O)c1ccccc1", "measured_result": -1.13}
{"compound": "CC(C)c1ccc(NN2C(C(O)c3ccc(B(O)O)cc3)C=CC3C(=O)N(c4ccccc4)C(=O)C32)cc1 (centres undefined)", "measured_result": -0.571}

# input for lookup
Inquiry: Please indicate z-score recorded for CCN(CC)c1ccc(N2CC=CC34O[C@@H]5C=CCCOC(=O)C5[C@H]3C(=O)N(CCCCCCO)[C@@H]4C2=O)cc1 (some centres undefined)
Reply text: 1.97

---

Experiment: PSAC antagonists in infected red cells, primary screen, cell-based, P. falciparum Indochina, OD700, 2 h (AID 1155);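 note: lysis reports solute entry through the parasite surface anion channel PSAC; channel blockers reduce lysis of infected cells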
Settings: P. falciparum Indochina infected erythrocytes, osmotic lysis OD700; higher = more signal, called active from +8 up or from −8 down
Kindly return Condition met if reported z-score is no lower than 1; return Condition not met if it is lower.

Known results for compounds:
{"compound": "COc1ccc(-c2cc3c(c(-c4ccc(Oc5ccccc5)cc4)n2)[Si](C(C)C)(C(C)C)OC3)cn1", "assigned_class": "Condition met"}
{"compound": "COC(=O)C[C@H]1O[C@]2(C(=O)N(C)c3ccccc32)[C@@H](C)[C@@H]1[Si](C)(C)F", "assigned_class": "Condition not met"}

Inquiry: Evaluate C[N+](C)(C)CCCCCCNC(=O)[C@@H]1C[C@@H]2C(=O)N[C@@H](Cc3ccccc3)C(=O)N2[C@@H]1c1cccc(OCCO)c1 : z-score at minimum 1?
Reply text: Condition met

Inquiry: Evaluate O[C@@H](Cc1ccccc1)[C@H]1C2C=CCCC=C2CN1Cc1cccc(Cl)c1 (some centres not stated) : z-score at minimum 1?
Reply text: Condition not met

Inquiry: Evaluate COC(=O)[C@H](Cc1ccccc1)N1CC2=C[C@@H](C3CC3)n3c(=O)n(C)c(=O)n3[C@H]2[C@@H]1[C@@H](O)Cc1ccccc1 : z-score at minimum 1?
Reply text: Condition met

Inquiry: Evaluate CC(C)OC(=O)C=C1C[C@@H](c2ccccn2)O[C@@H](c2ccccn2)O1 : z-score at minimum 1?
Reply text: Condition met

Inquiry: Evaluate C=C(CCCC)/C(=C/C[C@@H](OC(=O)c1ccncc1)c1ccc(OCCO)cc1)c1cc(C(=O)OC)ccc1OC : z-score at minimum 1?
Reply text: Condition met

Inquiry: Evaluate CCOC(=O)[C@H]1C/C=C/C[C@H](C(=O)OCC)C(=O)O[C@H]2[C@@H](OC)O[C@H](CO)[C@@H](OC(=O)c3c(OC)cccc3OC)[C@@H]2OC1=O : z-score at minimum 1?
Reply text: Condition met

Inquiry: Evaluate Cc1nc2cc(Br)ccc2c(=O)o1 : z-score at minimum 1?
Reply text: Condition not met

Inquiry: Evaluate CCC(CC)C(O)C1C=CC2C(=O)NC(=O)C2N1Nc1ccccn1 (configuration not stated) : z-score at minimum 1?
Reply text: Condition not met

Inquiry: Evaluate C=C[C@H](CO)NS(=O)(=O)c1ccc(Br)cc1 : z-score at minimum 1?
Reply text: Condition not met

Inquiry: Evaluate COc1ccc(CCNC(=O)[C@@]2(Sc3ccc(C)cc3)CC(=O)N(C3Cc4ccccc4C3)[C@@H]2c2ccc(CO)cc2I)cc1 : z-score at minimum 1?
Reply text: Condition met

Inquiry: Evaluate COC(=O)[C@@]1(Cc2ccc(OC)cc2)[C@H]2c3cc(C(=O)N4CCCC4)n(CCN4CNCC4=O)c3C[C@H]2CN1C(=O)c1ccccc1 : z-score at minimum 1?
Reply text: Condition not met

Inquiry: Evaluate CCCC[C@@H]1C[C@H]1[C@@H](NC(=O)c1ccco1)c1ccc(-c2ccccc2)cc1 : z-score at minimum 1?
Reply text: Condition not met

Inquiry: Evaluate CC(C)=CCCC(C)=CC(O)C1C=CC2C(=O)N(C)C(=O)C2N1Nc1ccccc1 (configuration not stated) : z-score at minimum 1?
Reply text: Condition met

Inquiry: Evaluate O=C(CS)NCCCCCCNC(=O)[C@@H]1C[C@@H]2C(=O)NCC(=O)N2[C@@H]1c1cccc(OCCO)c1 : z-score at minimum 1?
Reply text: Condition not met

Inquiry: Evaluate COC(=O)[C@@]1(Cc2ccc(OC)cc2)[C@H]2c3cc(C(=O)N(C)C)n(CCc4ccccn4)c3C[C@H]2CN1C(=O)c1ccccc1 : z-score at minimum 1?
Reply text: Condition met
